- study-system: Mu-type opioid receptor (Rattus norvegicus, UniProt P33535)
- Sequence (P33535 whole entry): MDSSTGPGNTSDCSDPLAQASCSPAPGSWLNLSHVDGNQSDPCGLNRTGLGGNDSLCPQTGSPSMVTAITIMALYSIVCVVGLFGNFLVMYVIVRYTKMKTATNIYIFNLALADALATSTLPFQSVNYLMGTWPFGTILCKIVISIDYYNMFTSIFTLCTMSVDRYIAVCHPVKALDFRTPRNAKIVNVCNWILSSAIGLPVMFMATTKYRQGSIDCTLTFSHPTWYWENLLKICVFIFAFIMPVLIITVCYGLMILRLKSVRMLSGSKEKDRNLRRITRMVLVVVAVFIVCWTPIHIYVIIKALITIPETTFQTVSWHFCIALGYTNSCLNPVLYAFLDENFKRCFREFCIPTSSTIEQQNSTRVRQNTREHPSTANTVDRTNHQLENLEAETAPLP
- assay-summary: Displacement of [3H]DAMGO from mu opioid receptor in Wistar rat brain membrane
Square brackets hold non-standard residues; d marks the D form. Peptide text beside a SMILES is read from it. Inp = O=C(O)C1CCNCC1
Please respond with reported pIC50 for every item in the list.
Numbers only, as −log10 of the molar value.

Worked cases, answers included:
NC(=O)[C@H](Cc1ccccc1)NC(=O)[C@H](Cc1c[nH]c2ccccc12)NC(=O)[C@@H]1CCCCN1C(=O)[C@@H](N)Cc1ccc(O)cc1
7.69
NC(=O)[C@H](Cc1ccccc1)NC(=O)[C@H](Cc1c[nH]c2ccccc12)NC(=O)[C@@H]1CCCN(C(=O)[C@@H](N)Cc2ccc(O)cc2)C1
8.45
Cc1cc(O)cc(C)c1C[C@H](N)C(=O)N1CCC[C@@H](C(=O)N[C@@H](Cc2ccccc2)C(=O)N[C@@H](Cc2ccccc2)C(N)=O)C1
10.46

Kindly review the next compound as well.
[in] Fill in: pIC50 on Mu-type opioid receptor (Rattus norvegicus, UniProt P33535), entry NC(=O)[C@H](Cc1ccccc1)NC(=O)[C@H](Cc1c[nH]c2ccccc12)NC(=O)C1CCN(C(=O)[C@@H](N)Cc2ccc(O)cc2)CC1 (H-Y[Inp]WF-NH2)
[out] 6.40

====

- study-system: Mu-type opioid receptor (Rattus norvegicus, UniProt P33535)
- assay-summary: Displacement of [3H]DAMGO from mu opioid receptor in Wistar rat brain membrane
Please provide measured pIC50 for the entries that follow.
One number for each entry, as −log10 of the molar value.

Cc1cc(O)cc(C)c1C[C@H](N)C(=O)N1CCC[C@@H](C(=O)N[C@@H](Cc2c[nH]c3ccccc23)C(=O)N[C@@H](Cc2ccccc2)C(N)=O)C1
9.42
NC(=O)[C@H](Cc1ccccc1)NC(=O)[C@H](Cc1ccccc1)NC(=O)[C@@H]1CCCN(C(=O)[C@@H](N)Cc2ccc(O)cc2)C1
10.40

Continue with the next compound.
[in] Input NC(=O)[C@H](Cc1ccccc1)NC(=O)[C@H](Cc1ccccc1)NC(=O)[C@@H]1CCCCN1C(=O)[C@@H](N)Cc1ccc(O)cc1 , output reported pIC50.
[out] 7.10

====

- assay-summary: Stability in rat brain homogenates assessed as degradation half life
- Format: ADME, tissue-based
- condition-notes: brain homogenate
Square brackets hold non-standard residues; d marks the D form. Peptide text beside a SMILES is read from it. Inp = O=C(O)C1CCNCC1
experimental-readout: half-life (min)
Answers are plain numbers, in min.

NC(=O)[C@H](Cc1ccccc1)NC(=O)[C@H](Cc1c[nH]c2ccccc12)NC(=O)[C@@H]1CCCCN1C(=O)[C@@H](N)Cc1ccc(O)cc1
9.68

Parameter requested: half-life. Apply to each item below.
1. NC(=O)[C@H](Cc1ccccc1)NC(=O)[C@H](Cc1ccccc1)NC(=O)[C@@H]1CCCN1C(=O)[C@@H](N)Cc1ccc(O)cc1 [ENDOMORPHIN 2]
2. Cc1cc(O)cc(C)c1C[C@H](N)C(=O)N1CCC[C@@H](C(=O)N[C@@H](Cc2ccccc2)C(=O)N[C@@H](Cc2ccccc2)C(N)=O)C1
3. NC(=O)[C@H](Cc1ccccc1)NC(=O)[C@H](Cc1c[nH]c2ccccc12)NC(=O)[C@@H]1CCCN1C(=O)[C@@H](N)Cc1ccc(O)cc1 [ENDOMORPHIN-1]

[out]
4.8
30.9
6.02

Lab note: each molecule below needs its half-life filled in.
1. NC(=O)[C@H](Cc1ccccc1)NC(=O)[C@H](Cc1ccccc1)NC(=O)[C@@H]1CCCCN1C(=O)[C@@H](N)Cc1ccc(O)cc1
2. NC(=O)[C@H](Cc1ccccc1)NC(=O)[C@H](Cc1c[nH]c2ccccc12)NC(=O)[C@@H]1CCCN(C(=O)[C@@H](N)Cc2ccc(O)cc2)C1
3. Cc1cc(O)cc(C)c1C[C@H](N)C(=O)N1CCC[C@@H](C(=O)N[C@@H](Cc2c[nH]c3ccccc23)C(=O)N[C@@H](Cc2ccccc2)C(N)=O)C1
4. NC(=O)[C@H](Cc1ccccc1)NC(=O)[C@H](Cc1ccccc1)NC(=O)[C@@H]1CCCN(C(=O)[C@@H](N)Cc2ccc(O)cc2)C1

[out]
1. 6.8
2. 29.6
3. 35.8
4. 48

[in] Give the reported value of half-life for this record: NC(=O)[C@H](Cc1ccccc1)NC(=O)[C@H](Cc1c[nH]c2ccccc12)NC(=O)C1CCN(C(=O)[C@@H](N)Cc2ccc(O)cc2)CC1 (H-Y[Inp]WF-NH2)
[out] 78.5
